B1: MBP-PHAX103–196 (wild type) [human] / Human nuclear cap-binding complex (CBC): CBP80ΔNLS with CBP20 [human] (parent)
chain 1: SQKPPVAGGKKINNIWGAVLQEQNQDAVATELGILGMEGTIDRSRQSETYNYLLAKKLRKESQEHTKDLDKELDEYMHGGKKMGSKEEENGQGH
chain 2: KTSDANETEDHLESLICKVGEKSACSLESNLEGLAGVLEADLPNYKSKILRLLCTVARLLPEKLTIYTTLVGLLNARNYNFGGEFVEAMIRQLKESLKANNYNEAVYLVRFLSDLVNCHVIAAPSMVAMFENFVSVTQEEDVPQVRRDWYVYAFLSSLPWVGKELYEKKDAEMDRIFANTESYLKRRQKTHVPMLQVWTADKPHPQEEYLDCLWAQIQKLKKDRWQERHILRPYLAFDSILCEALQHNLPPFTPPPHTEDSVYPMPRVIFRMFDYTDDPEGPVMPGSHSVERFVIEENLHCIIKSHWKERKTCAAQLVSYPGKNKIPLNYHIVEVIFAELFQLPAPPHIDVMYTTLLIELCKLQPGSLPQVLAQATEMLYMRLDTMNTTCVDRFINWFSHHLSNFQFRWSWEDWSDCLSQDPESPKPKFVREVLEKCMRLSYHQRILDIVPPTFSALCPANPTCIYKYGDESSNSLPGHSVALCLAVAFKSKATNDEIFSILKDVPNPNQDDDDDEGFSFNPLKIEVFVQTLLHLAAKSFSHSFSALAKFHEVFKTLAESDEGKLHVLRVMFEVWRNHPQMIAVLVDKMIRTQIVDCAAVANWIFSSELSRDFTRLFVWEILHSTIRKMNKHVLKIQKELEEAKEKLARQHKRRSDDDDRSSDRKDGVLEEQIERLQEKVESAQSEQKNLFLVIFQRFIMILTEHLVRCETDGTSVLTPWYKNCIERLQQIFLQHHQIIQQYMVTLENLLFTAELDPHILAVFQQFCALQA
chain 3: MSGGLLKALRSDSYVELSQYRDQHFRGDNEEQEKLLKKSCTLYVGNLSFYTTEEQIYELFSKSGDIKKIIMGLDKMKKTACGFCFVEYYSRADAENAMRYINGTRLDDRIIRTDWDAGFKEGRQYGRGRSGGQVRDEYRQDYDAGRGGYGKLAQNQ

variants of: B1; assay: ITC; conditions: CBC pre-bound to the cap analog m7GpppG
pKd: −log10 of the molar value.
Measured Parameter: pKd

- chain 1 R45E Y50E Y52E: 5.71
